- target_of_assay: DYRK2 (Homo sapiens)
- Sequence (Q92630 1-601): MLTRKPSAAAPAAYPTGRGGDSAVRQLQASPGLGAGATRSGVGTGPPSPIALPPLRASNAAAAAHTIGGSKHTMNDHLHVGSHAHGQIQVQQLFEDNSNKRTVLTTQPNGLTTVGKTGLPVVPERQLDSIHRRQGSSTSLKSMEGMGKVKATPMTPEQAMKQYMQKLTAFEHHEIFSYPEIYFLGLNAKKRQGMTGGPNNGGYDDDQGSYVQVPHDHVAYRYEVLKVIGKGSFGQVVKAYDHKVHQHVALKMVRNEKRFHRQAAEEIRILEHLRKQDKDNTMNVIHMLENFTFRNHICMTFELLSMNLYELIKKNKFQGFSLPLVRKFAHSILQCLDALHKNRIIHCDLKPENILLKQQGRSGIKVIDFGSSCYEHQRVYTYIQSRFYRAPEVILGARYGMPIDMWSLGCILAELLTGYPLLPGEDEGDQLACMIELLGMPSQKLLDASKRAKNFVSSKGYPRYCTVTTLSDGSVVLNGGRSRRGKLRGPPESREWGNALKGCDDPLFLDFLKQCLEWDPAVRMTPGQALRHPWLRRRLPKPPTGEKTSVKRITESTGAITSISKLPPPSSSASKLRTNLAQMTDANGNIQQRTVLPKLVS

{"columns": ["compound", "reading_unit", "IC50"],
 "data": [
  ["CC[C@@H](Nc1nc(NCc2ccccc2)c2ncn(C(C)C)c2n1)C(=O)O [Metabolite M3]", "µM", 23],
  ["CC[C@H](CO)Nc1nc(NCc2ccccc2)c2ncn(C(C)C)c2n1 [(R)-roscovitine, reference compound]", "µM", 2.3]
]}

---

- target_of_assay: UniProt:O43781
- Sequence (O43781 1-588): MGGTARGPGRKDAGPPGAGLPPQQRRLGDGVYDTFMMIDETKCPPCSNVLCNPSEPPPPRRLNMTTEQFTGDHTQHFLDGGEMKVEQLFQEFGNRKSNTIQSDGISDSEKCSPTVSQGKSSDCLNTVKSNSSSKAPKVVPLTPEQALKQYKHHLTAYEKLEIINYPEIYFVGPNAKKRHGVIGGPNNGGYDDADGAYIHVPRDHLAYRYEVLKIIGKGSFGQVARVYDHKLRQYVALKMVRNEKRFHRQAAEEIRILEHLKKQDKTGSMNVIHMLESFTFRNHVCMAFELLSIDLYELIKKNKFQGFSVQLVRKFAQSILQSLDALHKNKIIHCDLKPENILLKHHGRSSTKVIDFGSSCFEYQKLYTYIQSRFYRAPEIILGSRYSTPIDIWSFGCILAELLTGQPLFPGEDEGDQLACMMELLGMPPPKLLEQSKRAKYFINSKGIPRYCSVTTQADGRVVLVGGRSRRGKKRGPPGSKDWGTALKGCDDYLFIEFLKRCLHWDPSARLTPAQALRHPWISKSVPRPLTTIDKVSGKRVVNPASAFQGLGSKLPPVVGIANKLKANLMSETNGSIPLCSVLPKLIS
The following compounds are shown together with reported IC50 values.

{"columns": ["compound", "result_modifier", "IC50 (µM)"],
 "data": [
  ["CC[C@@H](Nc1nc(NCc2ccccc2)c2ncn(C(C)C)c2n1)C(=O)O [Metabolite M3]", ">", 100],
  ["CC[C@H](CO)Nc1nc(NCc2ccccc2)c2ncn(C(C)C)c2n1 [(R)-roscovitine, reference compound]", "=", 59]
]}

---

- target_of_assay: DYRK1B (Homo sapiens, UniProt Q9Y463)
- Sequence (Q9Y463 whole entry, species assumed): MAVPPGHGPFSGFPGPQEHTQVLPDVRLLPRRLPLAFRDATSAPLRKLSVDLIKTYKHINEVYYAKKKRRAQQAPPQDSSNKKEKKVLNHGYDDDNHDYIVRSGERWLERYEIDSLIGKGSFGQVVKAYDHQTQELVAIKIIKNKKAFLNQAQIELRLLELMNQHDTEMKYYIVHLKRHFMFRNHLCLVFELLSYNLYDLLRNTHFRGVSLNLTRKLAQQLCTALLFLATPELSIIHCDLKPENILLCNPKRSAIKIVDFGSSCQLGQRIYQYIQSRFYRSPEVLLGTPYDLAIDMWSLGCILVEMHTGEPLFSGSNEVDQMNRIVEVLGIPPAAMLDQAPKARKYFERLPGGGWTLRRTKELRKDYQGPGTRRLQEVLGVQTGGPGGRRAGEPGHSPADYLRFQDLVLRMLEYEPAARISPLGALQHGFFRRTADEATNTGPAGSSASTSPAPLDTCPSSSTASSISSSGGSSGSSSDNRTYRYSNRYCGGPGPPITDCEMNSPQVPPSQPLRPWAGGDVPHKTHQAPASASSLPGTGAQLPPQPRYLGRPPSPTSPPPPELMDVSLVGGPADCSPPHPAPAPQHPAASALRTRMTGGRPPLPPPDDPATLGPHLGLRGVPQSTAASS

{"columns": ["molecule", "IC50"],
 "data": [
  ["CC[C@@H](Nc1nc(NCc2ccccc2)c2ncn(C(C)C)c2n1)C(=O)O [Metabolite M3]", "22 µM"]
]}

---

- target_of_assay: DYRK1A (Homo sapiens)

{"columns": ["compound", "target_of_assay", "IC50 (µM)"],
 "data": [
  ["CC[C@@H](Nc1nc(NCc2ccccc2)c2ncn(C(C)C)c2n1)C(=O)O [Metabolite M3]", "DYRK1A (Homo sapiens)", 19]
]}

---

Target chain: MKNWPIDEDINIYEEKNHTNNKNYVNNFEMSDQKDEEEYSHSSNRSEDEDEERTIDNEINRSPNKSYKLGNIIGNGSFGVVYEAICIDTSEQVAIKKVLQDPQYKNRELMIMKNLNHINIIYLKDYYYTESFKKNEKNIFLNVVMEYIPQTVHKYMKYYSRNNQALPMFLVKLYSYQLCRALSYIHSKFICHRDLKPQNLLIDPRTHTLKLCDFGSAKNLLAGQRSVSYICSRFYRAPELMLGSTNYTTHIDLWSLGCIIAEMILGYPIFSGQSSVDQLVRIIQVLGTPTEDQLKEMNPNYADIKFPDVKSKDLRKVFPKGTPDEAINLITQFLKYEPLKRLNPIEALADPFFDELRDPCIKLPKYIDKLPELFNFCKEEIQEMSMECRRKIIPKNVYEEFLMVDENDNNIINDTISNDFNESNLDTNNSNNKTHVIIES
pIC50: −log10 of the molar value.

{"columns": ["compound", "pIC50"],
 "data": [
  ["CC[C@@H](Nc1nc(NCc2ccccc2)c2ncn(C(C)C)c2n1)C(=O)O [Metabolite M3]", "< 4.00"]
]}
